# Tested on: U2OS
# assay details: Incucyte cell viability with U2OS; also: filed as whole numbers so only -1 and 0 and 1 occur
# Assay type: toxicity, cell-based
# condition label: human, 6 h, 10 µM, compound concentration 10 uM, replicate number 1, timepoint 6 hours
Task for the reader: assign each of the following compounds its reported Growth Rate.
One number for each entry.

# count of solved cases: 3
- compound: "CC1(C)CNc2cc(NC(=O)c3cccnc3NCc3ccncc3)ccc21.O=P(O)(O)O.O=P(O)(O)O [MOTESANIB DIPHOSPHATE]"
  Growth Rate: 1
- compound: "CC(=O)[C@@]1(O)CC[C@H]2[C@@H]3C[C@H](C)C4=CC(=O)CC[C@]4(C)[C@H]3CC[C@@]21C"
  Growth Rate: 1
- compound: "Nc1nc(NCCc2ccc(O)cc2)nc2nc(-c3ccco3)nn12 [ZM-241385]"
  Growth Rate: 0

Proceeding to the next compound to report its Growth Rate.
Exam item: Request - read-out Growth Rate | tested on U2OS | compound CCOc1cc2ncc(C#N)c(Nc3ccc(OCc4cccc(F)c4)c(Cl)c3)c2cc1NC(=O)/C=C/CN(C)C [HKI-357]
Marked response: 0

====

Task for the reader: assign each of the following compounds its reported Population Healthy Nuclei (%).
# Test system: U2OS
# assay details: Multiplex assay against U2OS
# Format: toxicity, cell-based
# condition label: human, 24 h, 10 µM, compound concentration 10 uM, replicate 1
Answers are plain numbers, in %.

# count of solved cases: 3
- compound: "CNC(=O)c1cc(Oc2ccc(NC(=O)Nc3cc(C(C)(C)C)nn3-c3ccc4ncccc4c3)c(F)c2)ccn1 [REBASTINIB]"
  result type: "Population Healthy Nuclei (%)"
  meas value: 50
- compound: "Nc1nc2c(c(N3CCNCC3)n1)CCC1=C2[C@@H]2CCCC[C@@H]2O1"
  result type: "Population Healthy Nuclei (%)"
  meas value: 45
- compound: "COc1ccc(NS(=O)(=O)c2sc3ccc(Cl)cc3c2C)cc1N1CCNCC1.Cl"
  result type: "Population Healthy Nuclei (%)"
  meas value: 51

Proceeding to the next compound to report its Population Healthy Nuclei (%).
Exam item: Which Population Healthy Nuclei (%) is listed for CCOc1cc2ncc(C#N)c(Nc3ccc(OCc4cccc(F)c4)c(Cl)c3)c2cc1NC(=O)/C=C/CN(C)C [HKI-357] ?
Marked response: 68

====

# Test system: Fibroblast
# assay details: Multiplex assay against human fibroblast
# Type: toxicity, cell-based
# condition label: 12 h, 10 µM, compound concentration 10 uM, replicate 2
result type: Population Membrane Permeable-Phenotype (%)
Give bare numbers, in %.

- compound: "CCn1c(-c2nonc2N)nc2cnc(Oc3cccc(NC(=O)c4ccc(OCCN5CCOCC5)cc4)c3)cc21 [GSK-269962A]"
  meas value: 45

For the 3 compounds below, give their Population Membrane Permeable-Phenotype (%) values.
1. CCc1cc2c(cc1CC)CC(NC[C@H](O)c1ccc(O)c3[nH]c(=O)ccc13)C2 [INDACATEROL]
2. N#Cc1cnc(Nc2cc(NC[C@H]3CNCCO3)c(C(F)(F)F)cn2)cn1 [SRA-737]
3. COc1cc2c(NC3CCN(C(C)C)CC3)nc(N3CCC(F)(F)CC3)nc2cc1OCCCN1CCCC1

Marked response:
1: 23; 2: 7; 3: 66

For the 5 compounds below, give their Population Membrane Permeable-Phenotype (%) values.
1. CC(C)N1CCC(C)(C)c2cc(C#Cc3ccc(C(=O)O)cc3)ccc21
2. Cc1cn(-c2cc(NC(=O)c3ccc4c(c3)CN(c3cncnc3)C[C@@H]4C)cc(C(F)(F)F)c2)cn1
3. CC(=O)c1cc(-c2cc(C(=O)NC3CC3)ccc2C)c2ncccn12
4. CC(C)(C)c1cnc(CSc2cnc(NC(=O)C3CCNCC3)s2)o1 [BMS-387032]
5. Cl.Cl.Nc1ncnc2c1c(-c1cccc(OCc3ccccc3)c1)cn2[C@H]1C[C@@H](CN2CCC2)C1

Marked response:
4
10
3
0
77

====

# Tested on: U2OS
# assay details: Multiplex assay against U2OS
# Type: toxicity, cell-based
# condition label: human, 24 h, 10 µM, compound concentration 10 uM, replicate 2
Please mark label 1 if the recorded Population Mitochondria Different-Phenotype (%) is equal to or greater than 40%, and label 0 if it falls below.

Here are 3 compounds together with their reported answers.
- compound: "CN(C)CCOc1ccc(-c2nc(-c3ccncc3)c(-c3ccc4c(c3)CC/C4=N\\O)[nH]2)cc1"
  category: "label 0"
- compound: "CNC(=O)c1nn(C)c2c1C(C)(C)Cc1cnc(Nc3ccc(N4CCN(C)CC4)cc3)nc1-2"
  category: "label 1"
- compound: "CC(C)N1CCC(C)(C)c2cc(C#Cc3ccc(C(=O)O)cc3)ccc21"
  category: "label 0"

Exam item: Test whether the compound `COc1cc2c(Nc3ccc(NC(=O)c4ccccc4)cc3)ncnc2cc1OCCCN1CCOCC1` records Population Mitochondria Different-Phenotype (%) of 40% or higher.
Marked response: label 0

Exam item: Test whether the compound Cc1nc(Cc2cccc(C(F)(F)F)c2)sc1-c1ccc(C(N)=O)nc1 [TP-024n] records Population Mitochondria Different-Phenotype (%) of 40% or higher.
Marked response: label 0

====

# Test system: U2OS
# assay details: Incucyte cell viability with U2OS; also: filed as whole numbers so only -1 and 0 and 1 occur
# Assay type: toxicity, cell-based
# condition label: human, 24 h, 10 µM, compound concentration 10 uM, replicate number 1, timepoint 24 hours
result type: Growth Rate
Numbers only.

# count of solved cases: 3
- compound: "CC(C)NCC(O)c1ccc(N)c(C#N)c1 (centres undefined) [CIMATEROL]"
  Growth Rate: 1
- compound: "Cc1c(Oc2ccc(F)cc2)c(OC(C)C)nn1-c1ccc(C2CC2)cn1 [IPP/CNRS-A019]"
  Growth Rate: 1
- compound: "Cc1cccc(NC(=O)N[C@@H]2N=C(c3ccccc3)c3ccccc3N(C)C2=O)c1 [L-365260]"
  Growth Rate: 0

For the 6 compounds below, give their Growth Rate values.
1. CCNC(=O)c1cc2c(N3CCOC[C@@H]3C)ccnc2[nH]1
2. CN(C(=O)Cc1ccc(Cl)c(Cl)c1)C(CN1CCCC1)c1cccc(OCC(=O)O)c1.Cl (centres undefined)
3. O=C(c1ccc(F)c(F)c1Nc1ccc(I)cc1F)N1CC(O)([C@@H]2CCCCN2)C1 [COBIMETINIB]
4. N#Cc1ccc(Nc2ccc3[nH]c(=O)[nH]c3c2)c(Cl)c1 [TP-021n]
5. CCCOc1ccc([C@@H]2[C@@H](C(=O)O)[C@H](c3ccc4c(c3)OCO4)CN2CC(=O)Nc2c(CC)cccc2CC)cc1 [A-1806262]
6. CC(=O)N1CCC(c2ccc(C(=O)NC3=NCCN3)cc2C(F)(F)F)CC1 [BI 0054]

Marked response:
1: 0; 2: 1; 3: 0; 4: 0; 5: 1; 6: 1

====

# System: Fibroblast
# assay details: Multiplex assay against human fibroblast
# Assay type: toxicity, cell-based
# condition label: 12 h, 1 µM, compound concentration 1 uM, replicate 2
Task for the reader: assign each of the following compounds its reported Population Tubulin-Different-Phenotype (%).
One number for each entry, in %.

- compound: "CCn1c(-c2nonc2N)nc2cnc(Oc3cccc(NC(=O)c4ccc(OCCN5CCOCC5)cc4)c3)cc21 [GSK-269962A]"
  tested on: "Fibroblast"
  meas value: 14

For the 2 compounds below, give their Population Tubulin-Different-Phenotype (%) values.
1. Nc1ccc(C(=O)Nc2cccc(-c3nc(N4CCOCC4)c4oc5ncccc5c4n3)c2)cn1
2. COc1cc2c(Nc3ccc(NC(=O)c4ccccc4)cc3)ncnc2cc1OCCCN1CCOCC1

Marked response:
28
64

For the 2 compounds below, give their Population Tubulin-Different-Phenotype (%) values.
1. Cc1nc(Cc2cccc(C(F)(F)F)c2)sc1-c1ccc(C(N)=O)nc1 [TP-024n]
2. CNC(=O)c1nn(C)c2c1C(C)(C)Cc1cnc(Nc3ccc(N4CCN(C)CC4)cc3)nc1-2

Marked response:
16
54

For the 2 compounds below, give their Population Tubulin-Different-Phenotype (%) values.
1. CNc1oc(-c2cccc3ccccc23)nc1C#N
2. Cl.Cl.NC1(c2ccc(-c3nc4ccn5c(=O)[nH]nc5c4cc3-c3ccccc3)cc2)CCC1

Marked response:
1. 7
2. 16

For the 2 compounds below, give their Population Tubulin-Different-Phenotype (%) values.
1. CC(C)(C)c1cnc(CSc2cnc(NC(=O)C3CCNCC3)s2)o1
2. COc1ccc(NS(=O)(=O)c2sc3ccc(Cl)cc3c2C)cc1N1CCNCC1.Cl

Marked response:
1. 0
2. 10

====

# Tested on: HEK-293T
# assay details: Multiplex assay against HEK293T
# Format: toxicity, cell-based
# condition label: human, 24 h, 10 µM, compound concentration 10 uM, replicate 2
Task for the reader: assign each of the following compounds its reported Population Healthy Nuclei (%).
Answers are plain numbers, in %.

- compound: "CC(C)N1CCC(C)(C)c2cc(C#Cc3ccc(C(=O)O)cc3)ccc21"
  meas value: 67
- compound: "CNC(=O)c1cc(Oc2ccc(NC(=O)Nc3cc(C(C)(C)C)nn3-c3ccc4ncccc4c3)c(F)c2)ccn1 [REBASTINIB]"
  meas value: 81
- compound: "Cc1nc(Cc2cccc(C(F)(F)F)c2)sc1-c1ccc(C(N)=O)nc1 [TP-024n]"
  meas value: 30
- compound: "COc1ccc(NS(=O)(=O)c2sc3ccc(Cl)cc3c2C)cc1N1CCNCC1.Cl"
  meas value: 25
- compound: "CCOc1cc(N2CCC(O)CC2)ccc1Nc1ncc2c(n1)N(C1CCCC1)CCC(=O)N2C"
  meas value: 70
- compound: "CN(C)C/C=C/C(=O)Nc1cc2c(Nc3ccc(F)c(Cl)c3)ncnc2cc1O[C@H]1CCOC1.O=C(O)/C=C\\C(=O)O.O=C(O)/C=C\\C(=O)O [AFATINIB DIMALEATE]"
  meas value: 55
- compound: "Nc1nc2c(c(N3CCNCC3)n1)CCC1=C2[C@@H]2CCCC[C@@H]2O1"
  meas value: 42
- compound: "Nc1ccc(C(=O)Nc2cccc(-c3nc(N4CCOCC4)c4oc5ncccc5c4n3)c2)cn1"
  meas value: 15

For the 6 compounds below, give their Population Healthy Nuclei (%) values.
1. COc1cc2c(NC3CCN(C(C)C)CC3)nc(N3CCC(F)(F)CC3)nc2cc1OCCCN1CCCC1
2. CCCn1c(=O)c2[nH]c(C34CC5CC(CC3C5)C4)nc2n(CCC)c1=O [ROLOFYLLINE]
3. CCC(=O)O[C@]1(C(=O)SCF)[C@H](C)C[C@H]2[C@@H]3C[C@H](F)C4=CC(=O)C=C[C@]4(C)[C@@]3(F)[C@@H](O)C[C@@]21C [FLUTICASONE PROPIONATE]
4. CCc1cc2c(cc1CC)CC(NC[C@H](O)c1ccc(O)c3[nH]c(=O)ccc13)C2 [INDACATEROL]
5. c1ccc2oc(-c3csc(C4CCN(Cc5nc6ncccc6[nH]5)CC4)n3)cc2c1
6. CC(C)(C)c1cnc(CSc2cnc(NC(=O)C3CCNCC3)s2)o1 [BMS-387032]

Marked response:
1. 25
2. 38
3. 44
4. 20
5. 84
6. 83

For the 4 compounds below, give their Population Healthy Nuclei (%) values.
1. Cc1cn(-c2cc(NC(=O)c3ccc4c(c3)CN(c3cncnc3)C[C@@H]4C)cc(C(F)(F)F)c2)cn1
2. Cc1cc2c(cc1N1C(=O)c3cccc4c(CCCO)ccc(c34)C1=O)n(C)c(=O)n2C
3. CNc1oc(-c2cccc3ccccc23)nc1C#N
4. COc1cc2c(Nc3ccc(NC(=O)c4ccccc4)cc3)ncnc2cc1OCCCN1CCOCC1

Marked response:
1. 84
2. 63
3. 10
4. 79
